TEST_TARGET: hP2X2/3H (Homo sapiens, UniProt P56373+Q9UBL9)
Construct: expressed in transfected cells; host or cells: e.g. HEK293 or 1321N1
Sequence (Q9UBL9 1-471): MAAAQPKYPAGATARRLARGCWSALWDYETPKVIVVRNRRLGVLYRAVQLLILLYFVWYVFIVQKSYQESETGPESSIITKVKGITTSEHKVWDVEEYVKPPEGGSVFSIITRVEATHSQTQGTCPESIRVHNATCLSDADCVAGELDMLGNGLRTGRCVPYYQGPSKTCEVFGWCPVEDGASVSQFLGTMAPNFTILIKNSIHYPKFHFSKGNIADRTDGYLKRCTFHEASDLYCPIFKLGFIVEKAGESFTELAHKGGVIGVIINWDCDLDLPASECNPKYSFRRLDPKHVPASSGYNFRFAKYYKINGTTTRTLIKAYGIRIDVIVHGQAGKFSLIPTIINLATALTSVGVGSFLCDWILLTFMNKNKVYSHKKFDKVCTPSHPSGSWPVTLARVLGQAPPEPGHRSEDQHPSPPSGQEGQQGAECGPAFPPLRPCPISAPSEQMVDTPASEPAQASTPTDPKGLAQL
Sequence (P56373 1-397): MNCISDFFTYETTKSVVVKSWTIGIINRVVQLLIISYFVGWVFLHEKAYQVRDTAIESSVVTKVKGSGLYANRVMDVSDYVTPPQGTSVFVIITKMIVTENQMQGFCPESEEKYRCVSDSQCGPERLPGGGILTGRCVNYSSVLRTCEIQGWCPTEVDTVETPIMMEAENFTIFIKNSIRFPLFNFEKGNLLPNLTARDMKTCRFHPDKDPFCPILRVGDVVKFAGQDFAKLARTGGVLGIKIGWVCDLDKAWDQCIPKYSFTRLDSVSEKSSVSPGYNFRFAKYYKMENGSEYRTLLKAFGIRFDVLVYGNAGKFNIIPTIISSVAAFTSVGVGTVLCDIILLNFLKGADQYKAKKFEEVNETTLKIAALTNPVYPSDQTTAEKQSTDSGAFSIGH
TEST_NAME: Calcium uptake assay (P2X antagonist assay), P2X2/3 heteromer
Type: cell-based
APPLIED_CONDITIONS: calcium uptake assay, hP2X2/3H; read-out: IC50 hP2X2/3H (nM), Ca Influx
Procedure: The human P2X2/3 chimera clone is created as described by Neelands et al, and then cloned into an expression vector as above. […] Functional activity of compounds at the P2X receptor is determined by measuring their ability to inhibit agonist-induced calcium influx. […] At the start of each screening day, the agonist EC50 is determined. Compound % inhibition or IC50s are subsequently determined using a predetermined agonist concentration (EC50-90 depending on cell line) as a stimulus. […]
Some compounds, each annotated with its measured IC50.

COMPOUND | RESULT
Cc1ccc(-c2cc(S(=O)(=O)N3CCCC3)cc(C(=O)NCc3ccc(Cl)c(S(C)(=O)=O)c3)c2C)cc1 [Compound 66] | > 1000 nM

Prompt: Tell me measured IC50 for Cc1ccc(-c2cc(C(=O)N[C@H](C)c3cnn(C)c3C)cc(C(=O)N3CCCC3)c2)cc1 [Compound 109] please.
Response: 501 to 1000 nM

Prompt: Tell me measured IC50 for COc1ccc([C@@H](CO)NC(=O)c2cc(C(=O)N(C)CC(C)C)cc(-c3ccc(C)cc3)c2)cn1 [Compound 7] please.
Response: 100 to 500 nM

Prompt: Tell me measured IC50 for Cc1ccc(-c2cc(C(=O)NCc3ccc4c(c3)OCO4)cc(C(=O)N3CCCC3)c2)cc1 [Compound 98] please.
Response: 100 to 500 nM

Prompt: Tell me measured IC50 for Cc1ccc(-c2cc(C(=O)NCc3ccc(C(F)(F)F)nc3)cc(C(=O)N3CCCC3)c2)nc1 [Compound 123] please.
Response: < 100 nM

Prompt: Tell me measured IC50 for COC1CCN(C(=O)c2cc(C(=O)NCc3cnc(C)nc3)cc(-c3ccc(C)cc3)c2)C1 (stereo not shown) [Compound 32] please.
Response: < 100 nM

Prompt: Tell me measured IC50 for Cc1ccc(-c2cc(C(=O)NC(C)c3ccc(Cl)c(S(C)(=O)=O)c3)cc(S(C)(=O)=O)c2)cc1 (stereo not shown) [Compound 26] please.
Response: < 100 nM
